Target: ScNbp2
Assay: SPOT peptide array binding signal intensity (averaged, normalized) (arbitrary units (background-subtracted, floor 0; scale differs between SH3 domains)); higher = stronger binding of the SH3 domain to the peptide
# binarize SPOT peptide array binding signal intensity: threshold 60 inclusive, high side label 1, low side label 0

Example results:
BINDER | ASSIGNED_CLASS
VRVKKRPLIRPLNSS | label 1
QDKEGIPPDQQRLIF | label 0
AHFQPQRTAPKPPIS | label 1
LEFRAILFIPKRAPF | label 1
DKSRPPRPPPKPLHL | label 1
PALPSLPPPPLLNVD | label 0
FYNRTAFQLPGDARV | label 0
TEVPIPRRPPPPQAA | label 0
VPPPMQPPPIESSNL | label 1
FFRRSELYLPNSSKA | label 0

Item ATKSASPTLPTRRSR with SPOT peptide array binding signal intensity of 60 or above? label 1

Is it the case that KKAPPPVVKPKPRNF has SPOT peptide array binding signal intensity reaching or exceeding 60? label 0

Does NFFRKKLGIPRKLKR have a reported SPOT peptide array binding signal intensity of at least 60? label 1

Is SPOT peptide array binding signal intensity for GSKSGPPPRPKKPST at or above 60? label 0

Would you say LASNSPPVYPKRIRH shows SPOT peptide array binding signal intensity at minimum 60? label 0
